Measured values drawn from ChEMBL document CHEMBL5252509 for this set.

- target under test: Serine/threonine-protein kinase Nek3 (Homo sapiens) (UniProt P51956)
- Sequence (whole entry): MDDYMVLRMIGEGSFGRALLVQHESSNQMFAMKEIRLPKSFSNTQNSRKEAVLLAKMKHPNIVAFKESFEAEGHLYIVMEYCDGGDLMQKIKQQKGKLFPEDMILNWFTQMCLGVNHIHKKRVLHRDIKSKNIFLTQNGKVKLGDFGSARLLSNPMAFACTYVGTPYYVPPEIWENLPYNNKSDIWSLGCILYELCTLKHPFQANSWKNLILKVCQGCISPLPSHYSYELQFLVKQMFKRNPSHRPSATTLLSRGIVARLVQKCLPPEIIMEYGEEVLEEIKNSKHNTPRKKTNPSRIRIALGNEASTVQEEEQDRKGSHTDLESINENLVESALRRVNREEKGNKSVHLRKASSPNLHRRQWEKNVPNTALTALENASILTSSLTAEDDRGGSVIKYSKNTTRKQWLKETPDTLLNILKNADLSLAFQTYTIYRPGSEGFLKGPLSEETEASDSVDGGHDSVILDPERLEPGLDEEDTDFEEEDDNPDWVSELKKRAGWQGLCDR
- measurement description: Inhibition of NEK3 (unknown origin) at 10 uM relative to control
Threshold check on % control: at or above 80% gives satisfied, strictly below gives not satisfied.

**Query** Hello, I need to know if `O=C1NC(=O)/C(=C/c2ccc3nccc(-c4ccncc4)c3c2)S1` has measured % control not below 80%. Thanks!
**Result** not satisfied

**Query** Hello, I need to know if `CN(C)C/C=C/C(=O)Nc1cccc(C(=O)Nc2ccc(Nc3nccc(-c4cccnc4)n3)cc2)c1` has measured % control not below 80%. Thanks!
**Result** not satisfied

**Query** Hello, I need to know if CCCS(=O)(=O)Nc1ccc(F)c(C(=O)c2c[nH]c3ncc(-c4ccc(Cl)cc4)cc23)c1F [VEMURAFENIB] has measured % control not below 80%. Thanks!
**Result** not satisfied

**Query** Hello, I need to know if `CN(C)C/C=C/C(=O)Nc1cccc(C(=O)Nc2ccc(Nc3nccc(-c4c(-c5ccccc5)nn5ccccc45)n3)cc2)c1` has measured % control not below 80%. Thanks!
**Result** satisfied

**Query** Hello, I need to know if `CN(C)C/C=C/C(=O)Nc1cccc(C(=O)Nc2ccc(Nc3nccc(/C(C#N)=C4\Nc5ccccc5S4)n3)cc2)c1` has measured % control not below 80%. Thanks!
**Result** satisfied

**Query** Hello, I need to know if `Fc1cc(-c2cc[nH]/c(=N/c3ccc(-n4cnc(N5CCOCC5)n4)cc3)n2)cc(N2CCOCC2)c1` has measured % control not below 80%. Thanks!
**Result** not satisfied

**Query** Hello, I need to know if `Cc1ccc(NC(=O)c2ccc(NC(=O)/C=C/CN(C)C)cc2)cc1Nc1nccc(-c2cccnc2)n1` has measured % control not below 80%. Thanks!
**Result** satisfied

**Query** Hello, I need to know if `CN(C)C/C=C/C(=O)Nc1ccc(C(=O)Nc2cccc(Nc3nccc(-c4cccnc4)n3)c2)cc1` has measured % control not below 80%. Thanks!
**Result** not satisfied

**Query** Hello, I need to know if `Cc1cc(NC(=O)c2cccc(NC(=O)/C=C/CN(C)C)c2)ccc1Nc1nccc(-c2cccnc2)n1` has measured % control not below 80%. Thanks!
**Result** not satisfied
